Values from ChEMBL document CHEMBL1148485

pIC50 overview
# Test system: SK-MEL-28
# assay procedure: Tested in vitro for antineoplastic activity against MEL-28 (human melanoma) tumor cell line
# Assay type: functional, cell-based
Schema: pIC50 number; meaning minus log10 of the concentration expressed in molar units.

Previously resolved entries follow.
compound: COC(=O)[C@@H]1C(/C=N/c2nccs2)=Cc2cc3c(cc2C1c1cc(OC)c(OC)c(OC)c1)OCO3 (stereo not given in full)
pIC50: 6.60
--
compound: CC/N=C/C1=Cc2cc3c(cc2[C@@H](c2cc(OC)c(OC)c(OC)c2)[C@@H]1C(=O)OC)OCO3 (stereo in doubt; 5)
pIC50: 7.66
--
compound: COC(=O)[C@@H]1C(/C=N/c2cncnc2N)=Cc2cc3c(cc2C1c1cc(OC)c(OC)c(OC)c1)OCO3 (stereo not given in full)
pIC50: 6.00

Fill in: pIC50 of CC/N=C/C1=Cc2c(cc3c(c2OC)OCO3)C(c2cc(OC)c(OC)c(OC)c2)[C@@H]1C(=O)OC (stereo not given in full) is ___ 6.00

###

# System: SK-MEL-28
# assay procedure: Tested in vitro for antineoplastic activity against MEL-28 (human melanoma) tumor cell line
# Format: functional, cell-based
assay endpoint: pIC50
Schema: pIC50 number; meaning minus log10 of the concentration expressed in molar units.

Previously resolved entries follow.
compound: COC(=O)[C@@H]1C(/C=N/c2cc(C)c(C)cc2N)=Cc2cc3c(cc2C1c1cc(OC)c(OC)c(OC)c1)OCO3 (stereo partly drawn)
test system: SK-MEL-28
assay endpoint: pIC50
meas value: 6.05
//
compound: COC(=O)[C@@H]1C(/C=N/c2ccccc2)=Cc2cc3c(cc2C1c1cc(OC)c(OC)c(OC)c1)OCO3 (stereo partly drawn)
test system: SK-MEL-28
assay endpoint: pIC50
meas value: 5.92
//
compound: CCn1nccc1/N=C/C1=Cc2cc3c(cc2C(c2cc(OC)c(OC)c(OC)c2)[C@@H]1C(=O)OC)OCO3 (stereo partly drawn)
test system: SK-MEL-28
assay endpoint: pIC50
meas value: 6.02
//
compound: COC(=O)[C@@H]1C(/C=N/CCO)=Cc2cc3c(cc2C1c1cc(OC)c(OC)c(OC)c1)OCO3 (stereo partly drawn)
test system: SK-MEL-28
assay endpoint: pIC50
meas value: 6.68
//
compound: COC(=O)[C@@H]1C(C=O)=Cc2cc3c(cc2[C@H]1c1cc(OC)c(OC)c(OC)c1)OCO3
test system: SK-MEL-28
assay endpoint: pIC50
meas value: 6.64
//
compound: COC(=O)[C@@H]1C(/C=N/C2CCCCC2)=Cc2cc3c(cc2C1c1cc(OC)c(OC)c(OC)c1)OCO3 (stereo partly drawn)
test system: SK-MEL-28
assay endpoint: pIC50
meas value: 6.31

Fill in: pIC50 of COC(=O)[C@@H]1C(/C=N/c2cc(OC)c(OC)c(OC)c2)=Cc2cc3c(cc2C1c1cc(OC)c(OC)c(OC)c1)OCO3 (stereo partly drawn) is ___ 6.38

Fill in: pIC50 of CCCCCC/N=C/C1=Cc2cc3c(cc2C(c2cc(OC)c(OC)c(OC)c2)[C@@H]1C(=O)OC)OCO3 (stereo partly drawn) is ___ 6.31

###

pIC50 overview
# Test system: HT-29
# assay procedure: In vitro cytotoxicity against HT-29 (human colon carcinoma) cell line.
# Type: functional, cell-based
# measurement conditions: ht-29
Schema: pIC50 number; meaning minus log10 of the concentration expressed in molar units.

compound: CC/N=C/C1=Cc2cc3c(cc2[C@@H](c2cc(OC)c(OC)c(OC)c2)[C@@H]1C(=O)OC)OCO3 (stereo in doubt; 11)
pIC50: 7.47

We now examine a further compound.
Fill in: pIC50 of CC/N=C/C1=Cc2cc3c(cc2[C@@H](c2cc(OC)c(OC)c(OC)c2)[C@@H]1C(=O)OC)OCO3 (stereo in doubt; 5) is ___ 8.66
